assay: Dissociation constant, basic pKa of compound; format: physicochemical
Recorded endpoint: pKa

Structure as smiles	pKa
COc1nnc2ccc(N3CCC(c4ccc(OCCN5[C@H](C)CN(C(C)=O)C[C@@H]5C)cc4)CC3)nn12	6.2
COc1nnc2ccc(N3CCC(c4ccc(N5CC(CN6CCN(C)C(=O)[C@H]6C)C5)cc4)CC3)nn12	5.9
COc1nnc2ccc(N3CCC(c4ccc(CCN5CCN(C)C(=O)[C@H]5C)cc4)CC3)nn12	6.3

###

Ki, Bromodomain-containing protein 4 (Homo sapiens, UniProt O60885, N433A), per-entry values.
Recorded endpoint: Ki (nM)

Worked cases, Ki given:
Compound	Result number
C[C@@H]1C(=O)N(C)CCN1CCOc1ccc(C2CCN(c3ccc4nncn4n3)CC2)cc1	6310
C[C@@H]1C(=O)N(C)CCN1CCOc1ccc(C2CCN(c3ccc4nnc(C(F)(F)F)n4n3)CC2)cc1	398
COc1nnc2ccc(N3CCC(c4ccc(OCCN5CCN(C)C(=O)[C@H]5C)cc4)CC3)nn12 [AZD-5153]	126
COc1nnc2ccc(N3CCC(c4ccc(OCCN5[C@H](C)CN(C)C(=O)[C@H]5C)cc4)CC3)nn12	126
C[C@@H]1C(=O)N(C)CCN1CCOc1ccc(C2CCN(c3ccc4nnc(N(C)C)n4n3)CC2)cc1	316

A. COc1nnc2ccc(N3CCC(c4ccc(OCCCN5CCN(C)C(=O)[C@H]5C)cc4)CC3)nn12
B. Cc1nnc2ccc(N3CCC(c4ccc(OCCN5CCN(C)C(=O)[C@H]5C)cc4)CC3)nn12
query: Compare Ki: is it lower for A or for B ? // return label of chosen record
result: A

P. COc1nnc2ccc(N3CCC(c4ccc(N5CCC(N6CCN(C)C(=O)[C@H]6C)CC5)cc4)CC3)nn12
Q. COc1nnc2ccc(N3CCC(c4ccc(CCN5CCN(C)C(=O)[C@H]5C)cc4)CC3)nn12
R. CN1CCN(CCOc2ccc(C3CCN(c4ccc5nnc(C(F)(F)F)n5n4)CC3)cc2)C(=O)C1
query: Parameters: sort_field (Ki), sort_dir (desc). # output: labels, in the requested order
result: R, P, Q

1. COc1nnc2ccc(N3CCC(c4ccc(N5CC(CN6CCN(C)C(=O)[C@H]6C)C5)cc4)CC3)nn12
2. COc1nnc2ccc(N3CCC(c4ccc(OCCN5CCN(C)C(=O)[C@@H]5C)cc4)CC3)nn12
query: Compare Ki: is it lower for 1 or for 2 ? // return label of chosen record
result: 1

I. COc1nnc2ccc(N3CCC(c4ccc(N5CC(N6CCN(C)C(=O)[C@H]6C)C5)cc4)CC3)nn12
II. COc1nnc2ccc(N3CCC(c4ccc(OCCN5C[C@@H](C)N(C(C)=O)[C@@H](C)C5)cc4)CC3)nn12
query: // max by Ki over [ I , II ] // return label of chosen record
result: I
(I: 200 nM, II: 50.1 nM)

A. CSc1nnc2ccc(N3CCC(c4ccc(OCCN5CCN(C)C(=O)[C@H]5C)cc4)CC3)nn12
B. COc1nnc2ccc(N3CCC(c4ccc(OCCCCN5CCN(C)C(=O)[C@H]5C)cc4)CC3)nn12
C. CN1CCN(CCOc2ccc(C3CCN(c4ccc5nnc(C(F)(F)F)n5n4)CC3)cc2)CC1=O
query: // ascending sort on recorded Ki # output: labels, in the requested order
result: B, A, C

A. COc1nnc2ccc(N3CCC(c4ccc(OCCN5[C@H](C)CN(C(C)=O)C[C@@H]5C)cc4)CC3)nn12
B. C[C@@H]1C(=O)N(C)CCN1CCOc1ccc(C2CCN(c3ccc4nnc(Cl)n4n3)CC2)cc1
query: Compare Ki: is it lower for A or for B ? // return label of chosen record
result: A
(A: 50.1 nM, B: 200 nM)

###

experiment: Unbound fraction in human plasma; format: ADME, cell-free
Recorded endpoint: fraction unbound

Worked cases, fraction unbound given:
Structure as smiles	fraction unbound
COc1nnc2ccc(N3CCC(c4ccc(OCCN5[C@H](C)CN(C(C)=O)C[C@@H]5C)cc4)CC3)nn12	0.19
COc1nnc2ccc(N3CCC(c4ccc(N5CC(CN6CCN(C)C(=O)[C@H]6C)C5)cc4)CC3)nn12	0.32
COc1nnc2ccc(N3CCC(c4ccc(OCCN5CCN(C)C(=O)[C@H]5C)cc4)CC3)nn12	0.23

P. COc1nnc2ccc(N3CCC(c4ccc(CCN5CCN(C)C(=O)[C@H]5C)cc4)CC3)nn12
Q. C[C@@H]1C(=O)N(C)CCN1CCOc1ccc(C2CCN(c3ccc4nnc(N(C)C)n4n3)CC2)cc1
query: // max by fraction unbound over [ P , Q ] // return label of chosen record
result: P

###

assay: Lipophilicity, log D of compound at pH 7.4; assay type: physicochemical; conditions: buffer
Recorded endpoint: logD

Molecule	Recorded endpoint	Result number
C[C@@H]1C(=O)N(C)CCN1CCOc1ccc(C2CCN(c3ccc4nnc(N(C)C)n4n3)CC2)cc1	logD	2.4
CN1CCN(CCOc2ccc(C3CCN(c4ccc5nnc(C(F)(F)F)n5n4)CC3)cc2)C(=O)C1	logD	3.1
COc1nnc2ccc(N3CCC(c4ccc(N5CC(CN6CCN(C)C(=O)[C@H]6C)C5)cc4)CC3)nn12	logD	1.7

A. COc1nnc2ccc(N3CCC(c4ccc(OCCN5[C@H](C)CN(C)C(=O)[C@H]5C)cc4)CC3)nn12
B. COc1nnc2ccc(N3CCC(c4ccc(OCCN5C[C@@H](C)N(C(C)=O)[C@@H](C)C5)cc4)CC3)nn12
query: // max by logD over [ A , B ] // return label of chosen record
result: B

###

system: MM1.S; assay: Growth inhibition of human MM1S cells after 72 hrs by alamar blue assay; assay type: functional
Recorded endpoint: GI50 (nM)

Worked cases, GI50 given:
Structure as smiles	Recorded endpoint	Unit descriptor	Result number
COc1nnc2ccc(N3CCC(c4ccc(OCCN5CCN(C)C(=O)[C@H]5C)cc4)CC3)nn12	GI50	nM	5.01
COc1nnc2ccc(N3CCC(c4ccc(CCN5CCN(C)C(=O)[C@H]5C)cc4)CC3)nn12	GI50	nM	5.01
C[C@@H]1C(=O)N(C)CCN1CCOc1ccc(C2CCN(c3ccc4nnc(Cl)n4n3)CC2)cc1	GI50	nM	19.9
C[C@@H]1C(=O)N(C)CCN1CCOc1ccc(C2CCN(c3ccc4nnc(C(F)(F)F)n4n3)CC2)cc1	GI50	nM	5.01

a. C[C@@H]1C(=O)N(C)CCN1CCOc1ccc(C2CCN(c3ccc4nnc(N(C)C)n4n3)CC2)cc1
b. Cc1nnc2ccc(N3CCC(c4ccc(OCCN5CCN(C)C(=O)[C@H]5C)cc4)CC3)nn12
query: Compare GI50: is it lower for a or for b ? // return label of chosen record
result: a

A. COc1nnc2ccc(N3CCC(c4ccc(N5CC(CN6CCN(C)C(=O)[C@H]6C)C5)cc4)CC3)nn12
B. COc1nnc2ccc(N3CCC(c4ccc(OCCN5[C@H](C)CN(C)C(=O)[C@H]5C)cc4)CC3)nn12
query: // max by GI50 over [ A , B ] // return label of chosen record
result: B

###

experiment: Intrinsic clearance in rat hepatocytes assessed per million cells; format: ADME, cell-based, Hepatocyte; conditions: read-out: CLH
Recorded endpoint: hepatocyte CLint (µL/min/1e6 cells)

Structure as smiles	Recorded endpoint	Result number
COc1nnc2ccc(N3CCC(c4ccc(OCCN5[C@H](C)CN(C(C)=O)C[C@@H]5C)cc4)CC3)nn12	hepatocyte CLint	13

1. C[C@@H]1C(=O)N(C)CCN1CCOc1ccc(C2CCN(c3ccc4nnc(N(C)C)n4n3)CC2)cc1
2. COc1nnc2ccc(N3CCC(c4ccc(OCCN5CCN(C)C(=O)[C@H]5C)cc4)CC3)nn12
query: // max by hepatocyte CLint over [ 1 , 2 ] // return label of chosen record
result: 1

###

target: Bromodomain testis-specific protein (Homo sapiens, UniProt Q58F21); assay: Inhibition of human BRDT bromodomain 1 expressed in bacterial expression system
Recorded endpoint: pKi
Scale note: pKi = -log10(concentration in M).

query: Item under review: "COc1nnc2ccc(N3CCC(c4ccc(OCCN5CCN(C)C(=O)[C@H]5C)cc4)CC3)nn12" . Reported pKi?
result: 7.00

###

biological target: Bromodomain-containing protein 4 (Homo sapiens, UniProt O60885); assay: Inhibition of BRD4 in human MCF7 cells assessed as down regulation of ERalpha after 18 to 24 hrs by Hoechst staining based cellomics arrayscan analysis; type: cell-based
pIC50: −log10 of the molar value.
Recorded endpoint: pIC50

Compound	pIC50
Cc1nnc2ccc(N3CCC(c4ccc(OCCN5CCN(C)C(=O)[C@H]5C)cc4)CC3)nn12	7.40
C[C@@H]1C(=O)N(C)CCN1CCOc1ccc(C2CCN(c3ccc4nnc(Cl)n4n3)CC2)cc1	7.40
COc1nnc2ccc(N3CCC(c4ccc(OCCN5[C@H](C)CN(C)C(=O)[C@H]5C)cc4)CC3)nn12	7.70
COc1nnc2ccc(N3CCC(c4ccc(OCCN5CCN(C)C(=O)[C@H]5C)cc4)CC3)nn12 [AZD-5153]	7.60
COc1nnc2ccc(N3CCC(c4ccc(OCCCCN5CCN(C)C(=O)[C@H]5C)cc4)CC3)nn12	7.70
COc1nnc2ccc(N3CCC(c4ccc(OCCN5C[C@@H](C)N(C(C)=O)[C@@H](C)C5)cc4)CC3)nn12	7.40
COc1nnc2ccc(N3CCC(c4ccc(OCCCN5CCN(C)C(=O)[C@H]5C)cc4)CC3)nn12	7.70
C[C@@H]1C(=O)N(C)CCN1CCOc1ccc(C2CCN(c3ccc4nnc(C(F)(F)F)n4n3)CC2)cc1	7.60

src = ChEMBL document CHEMBL4431353
